All figures here come from patent US20150093336A1.

Target: T1, Recombinant mouse MMR (R&D systems) (mouse, UniProt Q61830 20-1388)
T1 construct: Antigen of the PE-ELISA and the SPR; also called mMMR; recombinant mMMR
T1 sequence: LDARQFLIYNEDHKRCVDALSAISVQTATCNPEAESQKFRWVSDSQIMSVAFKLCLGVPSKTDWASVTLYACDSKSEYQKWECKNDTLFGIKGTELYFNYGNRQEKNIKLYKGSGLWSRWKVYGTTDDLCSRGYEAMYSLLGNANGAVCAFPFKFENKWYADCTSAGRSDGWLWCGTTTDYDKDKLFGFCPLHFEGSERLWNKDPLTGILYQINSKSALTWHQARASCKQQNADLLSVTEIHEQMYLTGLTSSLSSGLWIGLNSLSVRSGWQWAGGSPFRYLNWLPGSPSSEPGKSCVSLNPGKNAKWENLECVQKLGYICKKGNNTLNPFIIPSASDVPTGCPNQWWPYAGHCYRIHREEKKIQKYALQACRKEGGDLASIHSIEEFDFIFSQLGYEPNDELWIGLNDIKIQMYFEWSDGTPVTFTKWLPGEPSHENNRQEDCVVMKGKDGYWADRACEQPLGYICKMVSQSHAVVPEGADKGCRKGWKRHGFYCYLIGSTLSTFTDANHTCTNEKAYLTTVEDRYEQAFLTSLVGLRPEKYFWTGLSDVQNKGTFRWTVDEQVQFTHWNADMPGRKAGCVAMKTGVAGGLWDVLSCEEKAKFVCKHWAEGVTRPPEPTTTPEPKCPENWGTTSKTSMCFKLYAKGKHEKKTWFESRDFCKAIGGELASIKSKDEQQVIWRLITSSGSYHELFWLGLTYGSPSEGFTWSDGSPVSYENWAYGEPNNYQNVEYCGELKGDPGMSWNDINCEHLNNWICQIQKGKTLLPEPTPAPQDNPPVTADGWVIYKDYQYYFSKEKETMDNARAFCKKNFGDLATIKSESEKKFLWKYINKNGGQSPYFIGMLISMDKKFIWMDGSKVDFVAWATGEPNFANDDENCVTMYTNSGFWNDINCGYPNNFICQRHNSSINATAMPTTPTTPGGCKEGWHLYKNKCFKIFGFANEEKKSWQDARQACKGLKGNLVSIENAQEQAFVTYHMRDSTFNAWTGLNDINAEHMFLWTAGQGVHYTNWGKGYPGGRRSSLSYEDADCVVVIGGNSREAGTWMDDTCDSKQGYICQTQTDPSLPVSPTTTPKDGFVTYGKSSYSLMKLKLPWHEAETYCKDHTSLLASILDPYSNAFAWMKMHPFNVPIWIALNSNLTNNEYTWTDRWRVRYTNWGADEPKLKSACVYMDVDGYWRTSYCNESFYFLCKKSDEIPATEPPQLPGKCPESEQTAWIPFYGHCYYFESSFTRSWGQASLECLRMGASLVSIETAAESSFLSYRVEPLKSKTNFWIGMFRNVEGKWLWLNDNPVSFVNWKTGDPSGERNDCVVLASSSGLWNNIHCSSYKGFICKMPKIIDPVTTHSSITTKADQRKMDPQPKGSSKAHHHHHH
Assay: SPR, BIAcore T100; mouse MMR on CM5 chip, sdAb as analyte
readout.name: kon (M⁻¹ s⁻¹)
Numeric answer only, unit M⁻¹ s⁻¹ assumed.

NbhmMMRm19.52 (VHH, Produced from pMECS with C-terminal HA and 6xHis tag) VHH: QVQLQESGGGLVQAGGSLRLSCLASGDTFSNYVMAWFRQAPGKEREIVAAIRLSGARYVPDSVKGRFTISRDNAKNAMYLQMTSLKPEDTARYYCAAGHTWGQYAYWGQGTQVTVSS; 3700
NbhmMMRm26.70 (VHH, Produced from pMECS with C-terminal HA and 6xHis tag) VHH: QVQLQESGGGLVQPGGSLRLSCTASGFPFSSAPMSWVRQAPGKELEWVSYIGYTGTITDYANSVKGRFTISRDNAKNRLYLQMNSLKPEDTAVYFCAQGYARLIADSDLVRGQGTQVTVSS; 690000
NbhMMRm11.5 (VHH, Produced from pMECS with C-terminal HA and 6xHis tag) VHH: QVQLQESGGGLVQPGGSLMLSCAASGNIFTINRMGWYRQAPGKQRELVAAITSGGNTNYADSVKGRFTISRDNAKNTVYLQMNSLKPEDTAVYYCNAAIVTMTSPYSDYWGQGTQVTVSS; 150000
NbhMMRm5.38 (VHH, Produced from pMECS with C-terminal HA and 6xHis tag; also called NbhmMMRm5.38; Nb5.38) VHH: QVQLQESGGGLVQAGGSLRLSCAASGFTDDDYDIGWFRQAPGKEREGVSCISSSDGSTYYADSVKGRFTISSDNAKNTVYLQMNSLKPEDTAVYYCAADFFRWDSGSYYVRGCRHATYDYWGQGTQVTVSS; 130000
NbhmMMRm15.49 (VHH, Produced from pMECS with C-terminal HA and 6xHis tag) VHH: QVQLQESGGGLVQAGGSLRLSCAASGSTFSINNMGWYRQAPGKQRELVAGITGGNTHYADSVKGRFTISRDNAKNTMYLQMNSLKPEDTAVYYCNANWGAYWGQGTQVTVSS; 29000
NbhmMMRm14.93 (VHH, Produced from pMECS with C-terminal HA and 6xHis tag) VHH: QVQLQESGGGLVQAGDSLRLSCAASGRTFSINYMGWYRQAPGKQRELVAAITSGSGSTNYADSVKGRFTISRDNAKKTMYLQMNSLKPEDTAVYYCNADMDSSLSGGYVDVWGQGTQVTVSS; 29000
NbhMMRm3.1 (VHH, Produced from pMECS with C-terminal HA and 6xHis tag; also called NbhmMMRm3.1) VHH: QVQLQESGGGLVQPGGSLRLSCAASGFTLDYYAIGWFRQAPGKEREGISCISYKGGSTTYADSVKGRFTISKDNAKNTAYLQMNNLKPEDTGIYYCAAGFVCYNYDYWGPGTQVTVSS; 210000

API: the following record is the query input.
Quick one: kon of NbhmMMRm10.79 (VHH, Produced from pMECS with C-terminal HA and 6xHis tag) VHH: QVQLQESGGGLVQPGGSLKLSCAASGSIFSIKTMGWYRQAPGKQRELVAAVSSGGSTNYADSVKGRFTISRDNAKNAVYLQMNSLKPEDTAVYYCNADGVVAWDQPYDNYWGQGTQVTVSS ? 110000
